Cited source: the supplement of paper PMC10567573

B1: LOC100129726 (parent)
chain: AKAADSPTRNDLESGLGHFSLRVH

variants of: B1; experiment: protein stability index of a GFP-peptide fusion (GPS, HEK-293T) (PSI 1-6); higher = more stable; settings: c terminus: a fixed tail appended;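 also: lentivirally expressed fusions sorted by FACS into six bins by GFP to DsRed ratio, PSI derived from sequencing read proportions per bin multiplied by bin number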
Would you mind labelling by protein stability index? At or over 2 is label 1, under is label 0.

mutantlabel=L21F classlabel="label 1"
mutantlabel=P7G classlabel="label 1"
mutantlabel=H24Y classlabel="label 0"
mutantlabel=L16E classlabel="label 1"
mutantlabel=N10F classlabel="label 1"
mutantlabel=P7W classlabel="label 0"
mutantlabel=A3M classlabel="label 1"
mutantlabel=D11G classlabel="label 1"
mutantlabel=R22V classlabel="label 1"
mutantlabel=D11H classlabel="label 1"
mutantlabel=D5M classlabel="label 1"
